Entries with their measured IC50, system JMJD3 (Homo sapiens, UniProt O15054):
measured.parameter: IC50 (µM)

[P] O=C(O)c1ccncc1NC[C@@H]1CCOc2cc(-c3ccccc3)ccc21
[Q] O=C(O)c1ccncc1NC[C@H]1CCOc2cc(-c3ccccc3)ccc21
Query :: Looking at P and Q , which one comes out lower in IC50 terms? Indicate which entry you chose by stating its label.
Result :: Q
(Q: 0.019 µM, P: 2.15 µM)

----------
biological target: JMJD2C (Homo sapiens); construct: purchased BPS Bioscience 50105; host or cells: baculovirus expression system (insect cells); test: In vitro enzyme inhibition assay for JMJD2C activity (TR-FRET); type: biochemical; conditions: enzymatic assay conditions described herein
Sequence (Q9H3R0 2-372): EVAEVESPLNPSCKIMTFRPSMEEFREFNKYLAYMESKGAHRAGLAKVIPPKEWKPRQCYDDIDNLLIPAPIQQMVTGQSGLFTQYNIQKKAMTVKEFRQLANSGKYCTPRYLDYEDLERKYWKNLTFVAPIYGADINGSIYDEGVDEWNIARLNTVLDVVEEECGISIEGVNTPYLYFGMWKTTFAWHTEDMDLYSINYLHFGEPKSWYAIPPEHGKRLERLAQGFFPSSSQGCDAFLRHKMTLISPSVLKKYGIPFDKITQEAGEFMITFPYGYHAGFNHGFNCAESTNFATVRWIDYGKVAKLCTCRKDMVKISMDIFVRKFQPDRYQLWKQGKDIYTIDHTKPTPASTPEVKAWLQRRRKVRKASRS
pIC50: −log10 of the molar value.
measured.parameter: pIC50

[I] O=C(O)c1ccncc1NC[C@@H]1CCOc2cc(-c3ccccc3)ccc21 [Example 84 of U.S. Pat. No. 8,952,151]
[II] O=C(O)c1ccncc1NC[C@H]1CCOc2cc(-c3ccccc3)ccc21 [Example 83 of U.S. Pat. No. 8,952,151]
Query :: Looking at I and II , which one comes out lower in pIC50 terms? Indicate which entry you chose by stating its label.
Result :: II
(II: 6.02, I: 6.82)
